Assayed System: Fibroblast growth factor receptor 2 (Homo sapiens) (UniProt P21802);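 further: reported figure is a mean percent inhibition of FGFR2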
Sequence (P21802 22-821 limits assumed): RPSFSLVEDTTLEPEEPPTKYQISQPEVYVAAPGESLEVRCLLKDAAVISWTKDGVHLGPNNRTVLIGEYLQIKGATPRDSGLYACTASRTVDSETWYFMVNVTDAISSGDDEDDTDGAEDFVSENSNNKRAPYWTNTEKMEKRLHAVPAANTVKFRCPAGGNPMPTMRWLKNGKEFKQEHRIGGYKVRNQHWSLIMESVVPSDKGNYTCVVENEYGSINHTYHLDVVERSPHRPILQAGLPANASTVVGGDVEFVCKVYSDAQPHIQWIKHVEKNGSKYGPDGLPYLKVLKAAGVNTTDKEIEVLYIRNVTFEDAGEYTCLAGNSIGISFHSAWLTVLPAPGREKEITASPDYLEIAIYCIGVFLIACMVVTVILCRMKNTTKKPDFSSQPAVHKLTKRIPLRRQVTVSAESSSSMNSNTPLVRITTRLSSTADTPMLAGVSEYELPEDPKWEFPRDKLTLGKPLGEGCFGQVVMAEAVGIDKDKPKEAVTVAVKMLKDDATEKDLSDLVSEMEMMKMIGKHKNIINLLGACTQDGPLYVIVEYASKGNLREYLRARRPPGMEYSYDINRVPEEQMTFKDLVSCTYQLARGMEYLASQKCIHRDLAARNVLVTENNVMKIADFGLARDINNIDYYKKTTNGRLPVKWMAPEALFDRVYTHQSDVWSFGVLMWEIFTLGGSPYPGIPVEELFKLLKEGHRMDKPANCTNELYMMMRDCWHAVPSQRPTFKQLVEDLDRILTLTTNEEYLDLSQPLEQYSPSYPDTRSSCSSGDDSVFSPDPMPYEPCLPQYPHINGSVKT
Applied Conditions: at 1 µM
Property Measured: inhibition
Record the result as a number with its unit.

Record Cc1ccc(C(=O)NC2CC2)cc1-c1ccc2[nH]ncc2c1 has Fibroblast growth factor receptor 2 (Homo sapiens) (UniProt P21802) inhibition equal to -3.78%

The recorded inhibition with Fibroblast growth factor receptor 2 (Homo sapiens) (UniProt P21802) for O=C(Nc1ccc(Oc2ccc3[nH]c(NC(=O)c4ccco4)nc3c2)cc1)Nc1cc(C(F)(F)F)ccc1F was 33.2%

Reading of inhibition for COC(=O)c1ccc2c(c1)C(=Cc1cc(Br)c(O)c(Br)c1)C(=O)N2 with Fibroblast growth factor receptor 2 (Homo sapiens) (UniProt P21802): 8.86%

Fibroblast growth factor receptor 2 (Homo sapiens) (UniProt P21802) assay, compound NS(=O)(=O)c1ccc(-c2cc3ccncc3cc2OCc2ccccc2)cc1 , recorded inhibition = 3.78%

// inhibition (Fibroblast growth factor receptor 2 (Homo sapiens) (UniProt P21802)) for O=S(=O)(CCOCc1ccc(-c2ccc3ncnc(Nc4ccc(OCc5cccc(F)c5)c(Cl)c4)c3c2)o1)c1ccccc1 = 3.75%

Query Cc1cc(O)cc(C)c1/C=C/c1cncc(C(=O)N(C)C)c1 on Fibroblast growth factor receptor 2 (Homo sapiens) (UniProt P21802); inhibition returned: 5.81%

Field inhibition (Fibroblast growth factor receptor 2 (Homo sapiens) (UniProt P21802)), entry Cc1ccc(Nc2ccnc(Nc3cccc(C(N)=O)c3)n2)cc1O : 26.6%

Item: O=C1Nc2ccc(-c3cccnc3)cc2C1=Cc1cc(Br)c(O)c(Br)c1 | System: Fibroblast growth factor receptor 2 (Homo sapiens) (UniProt P21802) | inhibition: 5.51%

Log: Fibroblast growth factor receptor 2 (Homo sapiens) (UniProt P21802), compound Cc1ccc(O)cc1Nc1ccnc2ccc(S(C)(=O)=O)cc12 , inhibition = 14.5%

Considering Nc1ccc(C#Cc2cncnc2Nc2ccc(OCc3cccc(F)c3)c(Cl)c2)cc1 , its inhibition with Fibroblast growth factor receptor 2 (Homo sapiens) (UniProt P21802) was recorded as 4.27%

====

Assayed System: Serine/threonine-protein kinase MARK2 (Homo sapiens) (UniProt Q7KZI7);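 further: mean percent inhibition of PAR-1Balpha kinase activity, reported from the GSK PKIS screen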
Sequence (Q7KZI7 whole entry): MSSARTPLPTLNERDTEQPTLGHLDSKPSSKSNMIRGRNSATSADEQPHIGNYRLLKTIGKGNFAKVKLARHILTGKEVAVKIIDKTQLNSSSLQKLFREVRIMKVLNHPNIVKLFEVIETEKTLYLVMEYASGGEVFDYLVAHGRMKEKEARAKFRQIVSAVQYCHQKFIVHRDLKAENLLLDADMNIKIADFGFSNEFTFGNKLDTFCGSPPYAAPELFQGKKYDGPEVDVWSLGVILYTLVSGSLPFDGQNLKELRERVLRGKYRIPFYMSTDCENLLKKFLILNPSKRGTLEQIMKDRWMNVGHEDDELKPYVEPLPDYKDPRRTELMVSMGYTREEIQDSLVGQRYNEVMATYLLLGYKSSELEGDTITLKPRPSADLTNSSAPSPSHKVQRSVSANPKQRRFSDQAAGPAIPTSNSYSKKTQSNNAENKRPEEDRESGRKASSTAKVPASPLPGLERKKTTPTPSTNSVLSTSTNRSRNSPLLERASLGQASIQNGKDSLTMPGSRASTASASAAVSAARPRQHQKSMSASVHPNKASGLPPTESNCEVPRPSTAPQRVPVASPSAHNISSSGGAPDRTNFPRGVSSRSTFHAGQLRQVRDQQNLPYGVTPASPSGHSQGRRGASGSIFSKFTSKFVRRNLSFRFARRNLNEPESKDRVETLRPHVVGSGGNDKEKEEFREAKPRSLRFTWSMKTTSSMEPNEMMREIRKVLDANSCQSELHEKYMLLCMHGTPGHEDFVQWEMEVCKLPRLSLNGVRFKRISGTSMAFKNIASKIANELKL
Applied Conditions: at 0.1 µM
Record form. Attribute: inhibition. Fill in for each entry.
Return type: number; implicit unit %.

inhibition recorded for this compound, ON=C1CCc2cc(-c3nc(C4CCNCC4)[nH]c3-c3ccncc3)ccc21 , is -1.2

inhibition measured on Cc1cc(Cl)cc2c1NC(=O)C2=NNc1ccc(S(N)(=O)=O)cc1 = 0.48

Consider NC(=O)c1sc(-n2cnc3ccccc32)cc1OCc1ccccc1Br . Its measured inhibition is 1.95

compound NS(=O)(=O)c1ccc(N/N=C2\C(=O)Nc3ccc(Cl)cc32)cc1 , inhibition observed: 0.41

// recorded inhibition for Cc1ccc(C(=O)NC2CC2)cc1-c1ccc2[nH]ncc2c1 : 2.15

Per the record, COc1cc2ncnc(Nc3ccc4c(cnn4Cc4ccccc4)c3)c2cc1OC has inhibition of -0.07

Lab book: inhibition of c1ccc(Cc2nc3ccc(Nc4ncnc5ccccc45)cc3[nH]2)cc1 noted as 0.28

Looking up CN(C)C(=O)O[C@@H]1CN[C@@H](C#Cc2cc3ncnc(Nc4ccc(OCc5cccc(F)c5)c(Cl)c4)c3s2)C1 , I see its inhibition listed as 0.66

compound N#Cc1c(NC(=O)c2ccccc2F)sc2c1CCCC2 , inhibition observed: -0.36

Please fill in: inhibition reported for COC(=O)c1ccc2c(c1)C(=Cc1cc(Br)c(O)c(Br)c1)C(=O)N2 = 0.84

Entry Nc1nccc(-c2c(-c3ccc(F)cc3)nn3cc(C(F)(F)F)ccc23)n1 — recorded inhibition = -2.12

====

Please respond with reported inhibition for every item in the list.
Assayed System: Dual specificity tyrosine-phosphorylation-regulated kinase 1B (Homo sapiens) (UniProt Q9Y463);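 further: values are mean percent inhibition of DYRK1B, from the GSK_PKIS set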
Sequence (Q9Y463 whole entry, looked up): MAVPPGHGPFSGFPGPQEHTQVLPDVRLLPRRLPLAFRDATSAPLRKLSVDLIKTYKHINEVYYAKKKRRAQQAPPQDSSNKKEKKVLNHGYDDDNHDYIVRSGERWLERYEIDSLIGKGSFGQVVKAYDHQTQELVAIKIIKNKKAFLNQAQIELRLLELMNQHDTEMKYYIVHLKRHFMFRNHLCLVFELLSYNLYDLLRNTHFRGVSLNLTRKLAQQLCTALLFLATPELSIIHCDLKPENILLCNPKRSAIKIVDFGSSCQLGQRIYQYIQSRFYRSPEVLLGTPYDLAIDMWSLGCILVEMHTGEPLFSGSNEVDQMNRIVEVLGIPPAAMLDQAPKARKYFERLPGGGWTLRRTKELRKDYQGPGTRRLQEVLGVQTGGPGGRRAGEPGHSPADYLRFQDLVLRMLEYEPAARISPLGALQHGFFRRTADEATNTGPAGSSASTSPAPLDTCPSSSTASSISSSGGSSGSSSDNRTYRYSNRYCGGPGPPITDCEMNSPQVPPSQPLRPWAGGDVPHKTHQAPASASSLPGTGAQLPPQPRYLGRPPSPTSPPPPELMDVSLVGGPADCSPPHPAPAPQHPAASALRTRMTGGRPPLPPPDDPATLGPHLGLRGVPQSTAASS
Applied Conditions: at 1 µM
Write it as a number; the unit % goes unstated.

The reported value for CS(=O)(=O)CCNCc1nc(-c2ccc3ncnc(Nc4ccc(OCc5cccc(C(F)(F)F)c5)cc4)c3c2)cs1 in terms of inhibition is 2.3

The value of inhibition measured for the molecule O=C(Nc1ccc(Oc2ccc3[nH]c(NC(=O)c4ccco4)nc3c2)cc1)Nc1cc(C(F)(F)F)ccc1F turned out to be -1.57

Input Cc1cc(-c2ccccn2)cc(C)c1/C=C/c1cncc(-c2nn[nH]n2)c1 . Output inhibition: 4.24

# inhibition (molecule: ON=C1CCc2cc(-c3nc(C4CCNCC4)[nH]c3-c3ccncc3)ccc21 ) is -0.11

Lookup result for CN1CCN(C(=O)c2ccc(NC(=O)Nc3ccc(N(C)c4ccnc(Nc5ccc(CS(C)(=O)=O)cc5)n4)cc3)cc2)CC1 ; measured inhibition: -2.01

The reported inhibition of the molecule COc1cccc(-n2ncc3c(N/N=C/c4ccc(S(C)(=O)=O)cc4)ncnc32)c1 was 47.3

Entry CN(C)CCCn1c(-c2nonc2N)nc2cnccc21 , inhibition reported as 4.52

In plain terms, CCn1c(-c2nonc2N)nc2c(C#CC(C)(C)O)nc(OCCNC)cc21 has a documented inhibition of -0.29

Briefly, inhibition measured for c1ccc(Nc2ncc(-c3ccccc3)o2)cc1 : 1.13

response.value for NC(=O)c1sc(-n2cnc3ccccc32)cc1OCc1ccccc1Br (field: inhibition) = 2.25

Briefly, inhibition measured for COc1cc(/C=N/Nc2ncnc3c2cnn3C(C)C)ccc1O : 7.69

Briefly, inhibition measured for CN(C)c1cc2c(Nc3ccc4c(cnn4Cc4ccccc4)c3)ncnc2cn1 : 3.5

Reported inhibition of C[C@@H](Oc1cc(-n2cnc3ccc(OCC4CCN(C)CC4)cc32)sc1C(N)=O)c1ccccc1C(F)(F)F : 2.2

inhibition measured on COc1ccc2ncnc(Nc3ccc(OCc4ccccc4)cc3)c2c1 = 1.35

So for Nc1nccc(-c2c(-c3ccc(F)cc3)nn3cc(C(F)(F)F)ccc23)n1 , the logged inhibition turned out to be 0.98

For record COC(=O)Nc1nc2cc(Oc3ccc(NC(=O)Nc4cccc(Br)c4)cc3)ccc2[nH]1 the listed inhibition is 1.17

# inhibition (molecule: CN(C)C(=O)O[C@@H]1CN[C@@H](C#Cc2cc3ncnc(Nc4ccc(OCc5cccc(F)c5)c(Cl)c4)c3s2)C1 ) is 1.08

Looking up NS(=O)(=O)c1ccc(N/N=C2\C(=O)Nc3ccc(Cl)cc32)cc1 , I see its inhibition listed as 3.96

Note to self: inhibition recorded for Cc1ccc2c(c1)/C(=N/Nc1ccc(S(N)(=O)=O)cc1)C(=O)N2 was 1.94

response.value for Nc1ccc(C#Cc2cncnc2Nc2ccc(OCc3cccc(F)c3)c(Cl)c2)cc1 (field: inhibition) = 2.12

====

Assayed System: MAP kinase-interacting serine/threonine-protein kinase 2 (Homo sapiens)
Applied Conditions: at 1 µM
Description: GSK_PKIS: MNK2 mean inhibition at 1 uM [Nanosyn]
Property Measured: inhibition (%)
API: value field is a number in %; no unit string.

I looked up CC(C)c1ccc2c(c1)NC(=O)/C2=N/Nc1ccc(S(N)(=O)=O)cc1 and its inhibition for MAP kinase-interacting serine/threonine-protein kinase 2 (Homo sapiens) was 2.57

// assay MAP kinase-interacting serine/threonine-protein kinase 2 (Homo sapiens), entry Cc1ccc(Nc2ccnc(Nc3cccc(C(N)=O)c3)n2)cc1O , inhibition value = 16.7

GET /values?item= CS(=O)(=O)Nc1cccc(-c2ccc3c(NC(=O)C4CC4)n[nH]c3c2)c1 &system= MAP kinase-interacting serine/threonine-protein kinase 2 (Homo sapiens) returns inhibition: 3.39

Tested on MAP kinase-interacting serine/threonine-protein kinase 2 (Homo sapiens): O=C1Nc2ccc(-c3cccnc3)cc2C1=Cc1cc(Br)c(O)c(Br)c1 . Observed inhibition: 36

inhibition value, target or system MAP kinase-interacting serine/threonine-protein kinase 2 (Homo sapiens), for Cc1ccc2c(-c3ccnc(Nc4cccc(C(F)(F)F)c4)n3)c(-c3ccccc3)nn2n1 : 3.52

The recorded inhibition with MAP kinase-interacting serine/threonine-protein kinase 2 (Homo sapiens) for NS(=O)(=O)c1ccc(N/N=C2\C(=O)Nc3ccc(Cl)cc32)cc1 was 5.65

# value of inhibition, MAP kinase-interacting serine/threonine-protein kinase 2 (Homo sapiens), item COc1ccc2ncnc(Nc3ccc(OCc4ccccc4)cc3)c2c1 = 11.3

Tested system MAP kinase-interacting serine/threonine-protein kinase 2 (Homo sapiens); inhibition recorded for c1ccc(Nc2ncc(-c3ccccc3)o2)cc1 was 4.71

// assay MAP kinase-interacting serine/threonine-protein kinase 2 (Homo sapiens), entry COC(=O)c1cncc(/C=C/c2c(C)cc(O)cc2C)c1 , inhibition value = 16.1

CCCN1CCCC(c2ccc(Nc3nc(Nc4cc(F)ccc4C(N)=O)c4cc[nH]c4n3)c(OC)c2)C1 (stereo unspecified) on MAP kinase-interacting serine/threonine-protein kinase 2 (Homo sapiens) gives inhibition = 2.51

Lab note: compound CN1CCN(C(=O)c2ccc(NC(=O)Nc3ccc(N(C)c4ccnc(Nc5ccc(CS(C)(=O)=O)cc5)n4)cc3)cc2)CC1 tested on MAP kinase-interacting serine/threonine-protein kinase 2 (Homo sapiens); recorded inhibition was 33.8

Assay MAP kinase-interacting serine/threonine-protein kinase 2 (Homo sapiens), sample CCn1c(-c2nonc2N)nc2ccc(F)cc21 , inhibition read: 9.38

Entry Cc1ccc2c(-c3ccnc(Nc4ccc5c(c4)OCCO5)n3)c(-c3ccc(C(F)(F)F)cc3)nn2n1 : inhibition on MAP kinase-interacting serine/threonine-protein kinase 2 (Homo sapiens) = 1.73

Observed inhibition, MAP kinase-interacting serine/threonine-protein kinase 2 (Homo sapiens), Cc1cc(Cl)cc2c1NC(=O)C2=NNc1ccc(S(N)(=O)=O)cc1 : 4.45

# O=S(=O)(CCOCc1ccc(-c2ccc3ncnc(Nc4ccc(OCc5cccc(F)c5)c(Cl)c4)c3c2)o1)c1ccccc1 with MAP kinase-interacting serine/threonine-protein kinase 2 (Homo sapiens): inhibition is 4.88

Field inhibition (system: MAP kinase-interacting serine/threonine-protein kinase 2 (Homo sapiens)) for entry COc1cc(Nc2nccc(-c3cnn4ncccc34)n2)cc(OC)c1 = 17.2

Sample N#Cc1cccc(Nc2nccc(-c3cnn4ncccc34)n2)c1 , system: MAP kinase-interacting serine/threonine-protein kinase 2 (Homo sapiens). Its inhibition is 33

Observed inhibition on MAP kinase-interacting serine/threonine-protein kinase 2 (Homo sapiens), entry CN(C)CCCn1c(-c2nonc2N)nc2cnccc21 , equals -0.09

Summary: COc1cccc(-n2nc(C)c3c(N/N=C(\C)c4ccncc4)ncnc32)c1 , MAP kinase-interacting serine/threonine-protein kinase 2 (Homo sapiens), inhibition = 0.76

# lookup: OCc1ccc(-c2nc(-c3ccccn3)c(-c3ccc4c(c3)OCO4)[nH]2)cc1 on MAP kinase-interacting serine/threonine-protein kinase 2 (Homo sapiens), inhibition = 0.09

Result for O=C(Nc1ccc(Oc2ccc3[nH]c(NC(=O)c4ccco4)nc3c2)cc1)Nc1cc(C(F)(F)F)ccc1F , tested on MAP kinase-interacting serine/threonine-protein kinase 2 (Homo sapiens), inhibition: 37.3
